TEST_SYSTEM: Protein farnesyltransferase (Homo sapiens, UniProt P49354+P49356)
ASSAY_DETAILS: Inhibitory activity against human Farnesyltransferase
Assay type: protein-complex assay
# IC50 per record follows

In the examples that follow, each entry is paired with its recorded IC50.
C[C@]1(C(=O)O)C(=O)CCC2C1C(=O)C[C@@]1(C)C2CC[C@@]12OCOC21COCO1 (stereo partly drawn)	> 100 µM
CC(=O)C1CCC2C3CCC(=O)[C@](C)(CCC(=O)O)C3C(=O)C[C@]12C (stereo partly drawn)	> 100 µM

Then this molecule:
**Q:** Name the recorded IC50 for CCOC(=O)C[C@H](C[C@@]1(C)C(=O)CCC2C3CCC(C(C)CCCC(C)C)[C@@]3(C)CCC21)C(=O)O (stereo partly drawn) .
**A:** > 100 µM
